These measurements were taken from PubChem BioAssay (NCI).

Test system: SW-620 colon
procedure details: NCI tumour cell line growth inhibition, 48 h
# key: entry, value: TGI

| compound | TGI |
| --- | --- |
| Cc1ccc(/C=N/NS(=O)(=O)c2ccccc2)c(C)c1 | > 100 µM |
| CCOC(=O)C(C)N1C(=O)c2ccccc2S1(=O)=O (configuration not stated) | > 100 µM |
| O=C(Nc1ccc(Cl)cc1)c1cc(S(=O)(=O)Nc2n[nH]c(=O)n2-c2ccccc2)c(S)cc1Cl | > 100 µM |
| CCCN1CCC=C(c2ccc(Nc3nc(Nc4ccccc4C(N)=O)c4cc[nH]c4n3)c(C)c2)C1 | > 25 µM |
| COc1ccc(NC(=O)C2C(=O)N(c3ccc(OC)cc3)C(=O)/C2=N\NC(N)=O)cc1 (configuration not stated) | > 100 µM |
| CC(C)N1C(C)[C@@H](c2ccccc2)O[P@]1(=O)CC1=CCCCC1 (some centres not stated) | > 100 µM |
| Cc1c(O)c(=O)ccn1CCc1ccc(O)cc1 | > 100 µM |
| O=[N+]([O-])/C(C(Cl)=C(Cl)Cl)=C(/Nc1ccccc1)Sc1ccccc1 | 51.1 µM |
| NS(=O)(=O)c1ccc(N=Nc2ccc(O)c(C(=O)O)c2)cc1 | > 100 µM |
| COc1ccc2c(c1)CCC/C2=N\NS(=O)(=O)c1c(C)cc(C)cc1C | 90.8 µM |
| Cc1ccc(S[C@@H](C)[C@@](O)(C(N)=O)c2ccccc2)cc1 | > 100 µM |
| O=c1cc(N2CCCC2)[nH]c(=O)n1-c1ccc(Cl)cc1 | > 100 µM |
| COc1cccc(NC2=C(Cl)C(=O)N(Cc3ccc(Cl)cc3)C2=O)c1 | 14.7 µM |
| COc1ccc2c(c1)c1c3n2CCNN=C3CCC1 | > 100 µM |
| CC1OC(=O)C(C(C)C)NC(=O)C(C(C)C)OC(=O)C(C(C)C)NC(=O)C(C)OC(=O)C(C(C)C)NC(=O)C(C(C)C)OC(=O)C(C(C)C)NC(=O)C(C)OC(=O)C(C(C)C)NC(=O)C(C(C)C)OC(=O)C(C(C)C)NC1=O (configuration not stated) | 4.85 µM |
| CSCCCNC(=O)[C@H](CSC)NC(=O)c1csc(CCNC(=O)[C@@H](NSc2ccccc2[N+](=O)[O-])C(C)O)n1 (some centres not stated) | > 100 µM |
| Cc1ccc(-c2n[nH]c(=O)c3noc(-c4ccc(C)cc4)c23)cc1 | > 100 µM |
| C=C1C(=O)OC2C3OC(C)(CCC(O)C3COC(C)=O)CC(OC(=O)/C(=C/C)COC(C)=O)C12 (configuration not stated) | 0.261 µM |
| CC(C)(C)[Si](C)(C)OC[C@H](/C=C\CCCC(=O)O)NC1(c2ccccc2)c2ccccc2-c2ccccc21 | > 100 µM |
| CC(C)NC(=O)OCc1c(COC(=O)NC(C)C)c(-c2cc[n+](COC(=O)C3CCCCC3)cc2)n2c1CCC2 | > 100 µM |
| Cc1cc(=O)oc2c(CNC(CC(C)C)C(=O)O)c(O)ccc12 (configuration not stated) | > 100 µM |
| Oc1ccc(Cl)cc1/C=N\NC(=S)N/N=C/c1cc(Cl)ccc1O | > 100 µM |
| NNC(=O)C(O)C(O)C(=O)NN (configuration not stated) | > 100 µM |
| Cc1ccc2nc(NC(=O)C(=O)CC(=O)c3cccc4ccccc34)sc2c1 | > 100 µM |
| CC(/C=N/N=C(N)N)=N\N=C(N)N | 2070 µM |
| CN1CCN([C@H]2C[C@H]3[C@@H]4CC=C5C[C@@H](O)CC[C@]5(C)[C@H]4CC[C@]3(C)[C@H]2O)CC1 | 49.7 µM |
| N#Cc1nc(/C=C/c2cccnc2)oc1N | > 100 µM |
